B1: Protein S100-G, residues 1 to 79; numbered along this chain, P02633 (parent)
chain: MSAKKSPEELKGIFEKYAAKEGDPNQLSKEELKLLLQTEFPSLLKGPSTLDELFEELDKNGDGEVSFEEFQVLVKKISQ

Variants of: B1
Experiment: abundance fitness (aPCA) (normalised: wild type 0, dead -1); higher = more abundant; growth selection in yeast, the domain comes from the species named
Details: Bos taurus
Note to self: class = bucket of abundance fitness, per low value (below -0.1), medium value (-0.1 to below -0.04), high value (-0.04 or more)

>>> qualitative_label("V72L")
"high value"
>>> qualitative_label("K75C")
"low value"
>>> qualitative_label("N25I")
"high value"
>>> qualitative_label("K76V")
"low value"
>>> qualitative_label("A3I")
"high value"
>>> qualitative_label("P41V")
"low value"
>>> qualitative_label("G12P")
"medium value"
>>> qualitative_label("N25Y")
"medium value"
>>> qualitative_label("Q37L")
"medium value"
>>> qualitative_label("S28N")
"medium value"
>>> qualitative_label("K76D")
"low value"
>>> qualitative_label("N25M")
"medium value"
>>> qualitative_label("D23P")
"low value"
>>> qualitative_label("E9H")
"medium value"
>>> qualitative_label("S2H")
"medium value"
>>> qualitative_label("E56M")
"medium value"
>>> qualitative_label("S6I")
"low value"
>>> qualitative_label("L10N")
"low value"
>>> qualitative_label("K76L")
"low value"
>>> qualitative_label("N25G")
"high value"
>>> qualitative_label("I13P")
"low value"
>>> qualitative_label("S2N")
"high value"
>>> qualitative_label("K76W")
"low value"
>>> qualitative_label("D23A")
"high value"
>>> qualitative_label("I77R")
"low value"
>>> qualitative_label("P41K")
"high value"
>>> qualitative_label("L44N")
"high value"
>>> qualitative_label("K11D")
"low value"
>>> qualitative_label("V72N")
"high value"
>>> qualitative_label("L44A")
"high value"
>>> qualitative_label("L57K")
"medium value"
>>> qualitative_label("P24M")
"medium value"
>>> qualitative_label("G63L")
"low value"
>>> qualitative_label("L43I")
"high value"
>>> qualitative_label("S2T")
"high value"
>>> qualitative_label("E69F")
"low value"
>>> qualitative_label("D51Y")
"low value"
>>> qualitative_label("K16E")
"low value"
>>> qualitative_label("E64F")
"medium value"
>>> qualitative_label("E39A")
"low value"
>>> qualitative_label("K5W")
"low value"
>>> qualitative_label("T38V")
"high value"
